Tested target: Glucagon receptor (Homo sapiens)
Procedure details: Antagonist activity at human GCGR expressed in HEK293 cells assessed as inhibition of glucogon-induced cAMP production
Assay type: functional, cell-based
Outcome measure: pIC50
Numbers only, as −log10 of the molar value.

Some entries whose results are on file:
H-GTFTSEYSKYLDSRRAQDFVQWLMNT-NH2 | 6.56
Ac-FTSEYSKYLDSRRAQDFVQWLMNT-NH2 | 6.89

Q) So what does the record say about pIC50 for H-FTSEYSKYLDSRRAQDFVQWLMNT-NH2 ?
A) 7.10

###

Tested target: Glucagon receptor (Homo sapiens, UniProt P47871)
Sequence (P47871 whole entry): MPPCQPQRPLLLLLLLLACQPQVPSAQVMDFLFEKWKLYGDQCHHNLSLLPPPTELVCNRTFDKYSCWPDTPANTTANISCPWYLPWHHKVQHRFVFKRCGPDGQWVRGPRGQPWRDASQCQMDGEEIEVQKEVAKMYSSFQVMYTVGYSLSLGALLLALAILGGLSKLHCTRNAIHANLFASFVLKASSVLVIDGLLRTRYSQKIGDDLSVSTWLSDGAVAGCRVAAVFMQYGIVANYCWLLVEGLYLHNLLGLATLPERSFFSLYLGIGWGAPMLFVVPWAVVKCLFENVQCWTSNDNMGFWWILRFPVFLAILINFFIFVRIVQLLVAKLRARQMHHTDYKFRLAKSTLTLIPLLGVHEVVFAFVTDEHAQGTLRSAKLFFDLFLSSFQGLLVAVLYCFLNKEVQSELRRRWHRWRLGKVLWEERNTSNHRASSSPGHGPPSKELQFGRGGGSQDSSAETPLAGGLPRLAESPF
Procedure details: Displacement of 125I-glucagon from human GCGR expressed in HEK293 cells membranes incubated for 6 hrs by liquid scintillation counting method
Assay type: cell membranes, Membrane
Outcome measure: IC50 (µM)
Answers are plain numbers, in µM.

H-TSEYSKYLDSRRAQDFVQWLMNT-NH2 | 10

Consider now this further substance.
Q) IC50 of Ac-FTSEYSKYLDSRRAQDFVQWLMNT-NH2 on Glucagon receptor (Homo sapiens, UniProt P47871)?
A) 0.0371

Each recorded value in this set is attributed to ChEMBL document CHEMBL4808176.
